Recorded measurements of AIRE transcriptional activation functional score, one per entry
B1: library; numbered along this chain (parent)
chain: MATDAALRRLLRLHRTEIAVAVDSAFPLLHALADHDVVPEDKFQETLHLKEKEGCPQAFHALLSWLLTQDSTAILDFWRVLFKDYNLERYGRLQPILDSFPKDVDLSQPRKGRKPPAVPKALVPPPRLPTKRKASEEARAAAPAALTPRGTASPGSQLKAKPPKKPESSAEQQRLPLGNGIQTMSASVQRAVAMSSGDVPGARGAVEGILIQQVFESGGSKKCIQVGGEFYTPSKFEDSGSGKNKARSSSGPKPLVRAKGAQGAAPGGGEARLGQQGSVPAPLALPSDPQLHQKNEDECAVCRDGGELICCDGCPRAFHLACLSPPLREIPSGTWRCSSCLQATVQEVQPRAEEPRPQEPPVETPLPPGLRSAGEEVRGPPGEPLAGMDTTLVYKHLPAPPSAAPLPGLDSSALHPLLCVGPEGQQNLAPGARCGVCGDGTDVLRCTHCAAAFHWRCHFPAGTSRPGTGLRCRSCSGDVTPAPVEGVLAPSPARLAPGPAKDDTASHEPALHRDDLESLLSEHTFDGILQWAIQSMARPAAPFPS

- Variants of: B1
- assay-comment: AIRE transcriptional activation functional score (insulin promoter-GFP; nonsense median 0, synonymous median 1) (normalised score); higher = higher AIRE activity (more reporter activation)
- condition-description: with insulin promoter-GFP reporter in HEK293
Give only the figure.

INSERT INTO measurements (mutation_list, quantitative_readout) VALUES
  ('D288R', 1.08);

Shifting focus to the variant that follows.
Briefly, AIRE transcriptional activation functional score measured for R149E : 1.02
